Reference for the values: patent US20240158446A1

biological target: GDP-bound KRAS wild-type protein (Homo sapiens); assay: Binding to KRAS by surface plasmon resonance (SPR), Single Cycle Kinetics; settings: SPR, Single Cycle Kinetics, 1:1 binding model; GDP-bound KRAS wild-type protein; read-out: KRAS KD
Answer each item with its documented pKd.
Interpret pKd as the negative base-10 log of the concentration measured in mol/L.

**Query** Form field: reported pKd of CCO[C@@H]1C[C@H]2C(=O)NC3(CC(C)(C)C3)C(=O)N(C)[C@@H](C3CCCC3)C(=O)N(C)[C@H](C(=O)N(C)C)CC(=O)N(C)[C@@H](CC3CC3)C(=O)N[C@@H]([C@@H](C)CC)C(=O)N(C)CC(=O)N(C)[C@H]3C/C=C\CCN(C3=O)[C@@H](Cc3ccc(C(F)(F)F)cc3)C(=O)N(C)CC(=O)N[C@@H](CCc3cc(F)c(C(F)(F)F)c(F)c3)C(=O)N2C1
**Result** 10.51

**Query** Form field: reported pKd of CCO[C@@H]1C[C@H]2C(=O)NC3(CC(C)(C)C3)C(=O)N(C)[C@@H](C3CCCC3)C(=O)N(C)[C@H](C(C)C)CC(=O)N(C)[C@@H](CC)C(=O)N[C@@H]([C@@H](C)CC)C(=O)N(C)CC(=O)N(C)[C@H]3C/C=C\CCN(C3=O)[C@@H](Cc3ccc(C(F)(F)F)cc3)C(=O)N(C)CC(=O)N[C@@H](CCc3cc(F)c(C(F)(F)F)c(F)c3)C(=O)N2C1
**Result** 9.22

**Query** Form field: reported pKd of CCC[C@H]1C(=O)N[C@@H]([C@@H](C)CC)C(=O)N(C)CC(=O)N(C)[C@H]2C/C=C\CCN(C2=O)[C@@H](Cc2ccc(C(F)(F)F)cc2)C(=O)N(C)CC(=O)N[C@@H](CCc2cc(F)c(Cl)c(F)c2)C(=O)N2C[C@H](OCC)C[C@H]2C(=O)NC2(CCC2)C(=O)N(C)[C@@H](C(CC)CC)C(=O)N(C)[C@H](C(=O)N(C)C)CC(=O)N1C
**Result** 9.25

**Query** Form field: reported pKd of CCO[C@@H]1C[C@H]2C(=O)NC3(CCC3)C(=O)N(C)[C@@H](C3CCCC3)C(=O)N(C)[C@H](C(=O)N(C)CCOC)CC(=O)N(C)[C@@H](CC)C(=O)N[C@@H]([C@@H](C)CC)C(=O)N(C)CC(=O)N(C)[C@H]3C/C=C\CCN(C3=O)[C@@H](Cc3ccc(C(F)(F)F)cc3)C(=O)N(C)CC(=O)N[C@@H](CCc3cc(F)c(C(F)(F)F)c(F)c3)C(=O)N2C1
**Result** 10.14

**Query** Form field: reported pKd of CCO[C@@H]1C[C@H]2C(=O)NC3(CC(C)(C)C3)C(=O)N(C)[C@@H](C(CC)CC)C(=O)N3CCC[C@@H]3CC(=O)N(C)[C@@H](CC)C(=O)N[C@@H]([C@@H](C)CC)C(=O)N(C)CC(=O)N(C)[C@H]3C/C=C\CCN(C3=O)[C@@H](Cc3ccc(C(F)(F)F)cc3)C(=O)N(C)CC(=O)N[C@@H](CCc3cc(F)c(C(F)(F)F)c(F)c3)C(=O)N2C1
**Result** 9.10

**Query** Form field: reported pKd of CCO[C@@H]1C[C@H]2C(=O)NC3(CCC3)C(=O)N(C)[C@@H](C(CC)CC)C(=O)N(C)[C@H](C(=O)N(C)C)CC(=O)N(C)[C@@H](C)C(=O)N[C@@H]([C@@H](C)CC)C(=O)N(C)CC(=O)N(C)[C@H]3C/C=C\CCN(C3=O)[C@@H](Cc3ccc(C(F)(F)F)cc3)C(=O)N(C)CC(=O)N[C@@H](CCc3ccc4sccc4c3)C(=O)N2C1
**Result** 8.92

###

Answer each item with its documented pKd.
target: GDP-bound KRAS wild-type protein (Homo sapiens, UniProt P01116); test: Binding to KRAS by surface plasmon resonance (SPR), Single Cycle Kinetics; conditions: SPR, Single Cycle Kinetics, 1:1 binding model; GDP-bound KRAS wild-type protein; read-out: KRAS KD
Sequence (P01116 whole entry): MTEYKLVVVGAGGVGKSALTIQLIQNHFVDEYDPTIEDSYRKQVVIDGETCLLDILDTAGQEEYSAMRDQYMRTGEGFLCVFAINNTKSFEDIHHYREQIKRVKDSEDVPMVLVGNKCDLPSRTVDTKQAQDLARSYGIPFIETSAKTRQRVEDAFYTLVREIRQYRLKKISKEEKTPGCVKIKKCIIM
Interpret pKd as the negative base-10 log of the concentration measured in mol/L.

**Query** Form field: reported pKd of CCO[C@@H]1C[C@H]2C(=O)NC3(CCC3)C(=O)N(C)[C@@H](C3CCCC3)C(=O)N(C)[C@H](C(=O)N(C)CCOC)CC(=O)N(C)[C@@H](CC)C(=O)N[C@@H]([C@@H](C)CC)C(=O)N(C)CC(=O)N(C)[C@H]3C/C=C\CCN(C3=O)[C@@H](Cc3ccc(C(F)(F)F)cc3)C(=O)N(C)CC(=O)N[C@@H](CCc3ccc(C(F)(F)F)c(OC)c3)C(=O)N2C1
**Result** 10.10

**Query** Form field: reported pKd of CCCOC[C@H]1C(=O)N[C@@H]([C@@H](C)CC)C(=O)N(C)CC(=O)N(C)[C@H]2C/C=C\CCN(C2=O)[C@@H](Cc2ccc(C(F)(F)F)cc2)C(=O)N(C)CC(=O)N[C@@H](CCc2cc(F)c(C(F)(F)F)c(F)c2)C(=O)N2C[C@H](OCC)C[C@H]2C(=O)NC2(CCC2)C(=O)N(C)[C@@H](C2CCCC2)C(=O)N(C)[C@H](C(=O)N(C)C)CC(=O)N1C
**Result** 10.20

**Query** Form field: reported pKd of CCO[C@@H]1C[C@H]2C(=O)NC3(CCC3)C(=O)N(C)[C@@H](C(CC)CC)C(=O)N(C)[C@H](C(=O)N(C)C)CC(=O)N(C)[C@@H](CC3CCCC3)C(=O)N[C@@H]([C@@H](C)CC)C(=O)N(C)CC(=O)N(C)[C@H]3C/C=C\CCN(C3=O)[C@@H](Cc3ccc(C(F)(F)F)cc3)C(=O)N(C)CC(=O)N[C@@H](CCc3ccc(C(F)(F)F)c(OC)c3)C(=O)N2C1
**Result** 9.55

###

molecular target: GDP-bound KRAS wild-type protein (Homo sapiens, UniProt P01116); test: Binding to KRAS by surface plasmon resonance (SPR), Single Cycle Kinetics; conditions: SPR Single Cycle Kinetics, GDP-bound KRAS wild-type protein, 1:1 binding model; read-out: KRAS KD
*1 amine or outer side, *2 acyl side, *3 side chain or, on linkers, in order; H or OH if unused. Where a SMILES comes first, the peptide text is derived from it. Bridges are numbered along the chain shown (N, C = ends). [ ]: non-standard residue; d: D form. The star is where a group is joined. hPhe(3,5-F2-4-CF3) = N[C@@H](CCc1cc(F)c(C(F)(F)F)c(F)c1)C(=O)O; hPhe(3-Cl-4-CF3) = N[C@@H](CCc1ccc(C(F)(F)F)c(Cl)c1)C(=O)O; NPrPhe(4-CF3) = CCCN[C@@H](Cc1ccc(C(F)(F)F)cc1)C(=O)O; NEtPhe(4-CF3) = CCN[C@@H](Cc1ccc(C(F)(F)F)cc1)C(=O)O; NMePhe(4-Me) = CN[C@@H](Cc1ccc(C)cc1)C(=O)O; NMeGly(cPent) = CN[C@H](C(=O)O)C1CCCC1; X8 = C[C@@](N[*:1])(C(=O)[*:2])C1CC1; NMeD = CN[C@@H](CC(=O)O)C(=O)O; NMeL = CN[C@@H](CC(C)C)C(=O)O; Ac6c = NC1(C(=O)O)CCCCC1; Morpholide = C1CN(*)CCO1; NMeA = CN[C@@H](C)C(=O)O; Ac5c = NC1(C(=O)O)CCCC1; Aze = O=C(O)[C@@H]1CCN1; NPrGly = CCCNCC(=O)O; Sar = CNCC(=O)O
VALUE KIND: Kd (nM)
Please give a number only; it is taken to be in nM.

**Query** Form field: reported Kd of CC[C@H](C)[C@@H]1NC(=O)[C@H](CC(C)C)N(C)C(=O)C[C@@H](C(=O)N2CCOCC2)N(C)C(=O)[C@H](C2CCCC2)N(C)C(=O)C2(CCCCC2)NC(=O)[C@@H]2CCCN2C(=O)[C@H](CCc2ccc(C(F)(F)F)c(Cl)c2)NC(=O)CN(C)C(=O)[C@H](Cc2ccc(C(F)(F)F)cc2)N(CC)C(=O)[C@@H]2CCN2C(=O)[C@H](C)N(C)C1=O [PP0222] ([NMeL]I[NMeA][Aze][NEtPhe(4-CF3)][Sar][hPhe(3-Cl-4-CF3)]P[Ac6c][NMeGly(cPent)][NMeD]-Morpholide; lactam N-11)
**Result** 0.57

**Query** Form field: reported Kd of CC[C@H](C)[C@@H]1NC(=O)[C@H](COC)N(C)C(=O)C[C@@H](C(=O)N(C)C)N(C)C(=O)[C@H](C2CCCC2)N(C)C(=O)C2(CC(C)(C)C2)NC(=O)[C@@H]2C[C@@H](OC3CCCC3)CN2C(=O)[C@H](CCc2cc(F)c(C(F)(F)F)c(F)c2)NC(=O)CN(C)C(=O)[C@H](CC2CCC(F)(F)CC2)N2CC/C=C\C[C@@H](C2=O)N(C)C(=O)CN(C2CC2)C1=O [PP2634]
**Result** 0.68

**Query** Form field: reported Kd of CCCN1CC(=O)N(C)[C@@H](Cc2ccc(C)cc2)C(=O)N(C)CC(=O)N[C@@H](CCc2ccc(C(F)(F)F)c(Cl)c2)C(=O)N2CCC[C@H]2C(=O)NC2(CCCC2)C(=O)N(C)[C@@H](C2CCCC2)C(=O)N(C)[C@H](C(=O)N2CCOCC2)CC(=O)N(C)[C@@H](CC(C)C)C(=O)N[C@@H]([C@@H](C)CC)C(=O)N(C)CC1=O [PP0020] ([NMeL]I[Sar][NPrGly][NMePhe(4-Me)][Sar][hPhe(3-Cl-4-CF3)]P[Ac5c][NMeGly(cPent)][NMeD]-Morpholide; lactam N-11)
**Result** 0.77

**Query** Form field: reported Kd of CCCN1C(=O)[C@@H]2CCN2C(=O)CN(C)C(=O)[C@H]([C@@H](C)CC)NC(=O)[C@H](CC(C)C)N(C)C(=O)C[C@@H](C(=O)N2CCOCC2)N(C)C(=O)[C@H](C2CCCC2)N(C)C(=O)[C@](C)(C2CC2)NC(=O)[C@@H]2CCCN2C(=O)[C@H](CCc2cc(F)c(C(F)(F)F)c(F)c2)NC(=O)CN(C)C(=O)[C@@H]1Cc1ccc(C(F)(F)F)cc1 [PP0791] ([NMeL]I[Sar][Aze][NPrPhe(4-CF3)][Sar][hPhe(3,5-F2-4-CF3)]P[X8][NMeGly(cPent)][NMeD]-Morpholide; lactam N-11)
**Result** 0.98
